Please provide measured IC50 for the entries that follow.
Test system: Line MDA (normal ovary cell line)
assay-remarks: cytotoxicity on a normal ovary cell line (Line MDA)
Format: cell-based
test-parameters: read-out: IC50 Line MDA
Reply with just the number (in nM).

In: Reported IC50, compound CC(=O)O[C@@]12CO[C@@H]1CC1NN=C3C(=O)C4=C(C)[C@@H](OC(=O)[C@H](O)[C@@H](NC(=O)c5ccccc5)c5ccccc5)C[C@@](O)([C@@H](OC(=O)c5ccccc5)[C@H]2[C@]31C)C4(C)C (stereo partly shown) : ____
Out: 3.1

In: Item CC(=O)O[C@@]12CO[C@@H]1CC1NN=C3C(=O)C4=C(C)[C@@H](OC(=O)[C@H](O)[C@H](CC(C)C)NC(=O)OC(C)(C)C)C[C@@](O)([C@@H](OC(=O)c5ccccc5)[C@H]2[C@]31C)C4(C)C (stereo partly shown) has what recorded IC50?
Out: 1.4

In: Fill blank: measured IC50 of the compound CC(=O)O[C@H]1C(=O)[C@@]2(C)[C@H]([C@H](OC(=O)c3ccccc3)[C@]3(O)C[C@H](OC(=O)[C@H](O)[C@@H](NC(=O)c4ccccc4)c4ccccc4)C(C)=C1C3(C)C)[C@]1(OC(C)=O)CO[C@@H]1C[C@@H]2O [Paclitaxel, reference compound] is ____.
Out: 2.4

In: Which IC50 is listed for CC(=O)O[C@@]12CO[C@@H]1CC1NN=C3C(=O)C4=C(C)[C@@H](OC(=O)[C@H](O)[C@@H](NC(=O)OC(C)(C)C)c5ccccc5)[C@@H]5OC(=O)O[C@]5([C@@H](OC(=O)c5ccccc5)[C@H]2[C@]31C)C4(C)C (stereo partly shown) ?
Out: 2.1

Data provenance is patent US5955489A.
